Tested on: NIH3T3
Experiment: Cytotoxic Profiling of Annotated Libraries Using Quantitative High-Throughput Screening (AID 1296008); note: % is set by controls: 0 for no effect and ±100 for the full control effect; nearly all actives have a fitted effect of over 60% in size
Conditions: Five cell lines viability, CellTiter-Glo ATP luminescence, 48-72 h; stronger effect = lower value
Results filed as inconclusive are left out.
Test Readout: max response (%)
Please reply with the bare figure in % and do not write the unit itself.

{"Compound": "CC(C)C(=O)OCc1cccc(OC(=O)[C@@H]2N3C(=O)[C@@H](NC(=O)Cc4ccccc4)[C@H]3SC2(C)C)c1", "Test Readout": "max response", "Units Text": "%", "Observed Measurement": 4.46}
{"Compound": "COc1cc(C(=O)NC2CCCNC2)cc(OC)c1OC (stereo not drawn)", "Test Readout": "max response", "Units Text": "%", "Observed Measurement": 4.73}
{"Compound": "c1ccc2occc2c1", "Test Readout": "max response", "Units Text": "%", "Observed Measurement": -3.85}

Fill in: max response of NCC[C@H](O)C(=O)N[C@@H]1C[C@H](N)[C@@H](O[C@H]2O[C@H](CN)[C@@H](O)[C@H](O)[C@@H]2O)[C@H](O)[C@@H]1O[C@H]1O[C@H](CO)[C@@H](O)[C@H](N)[C@@H]1O is ___ -2.83

Find the recorded max response belonging to O=C(O)c1[nH]n(-c2ccc(S(=O)(=O)O)cc2)c(=O)c1N=Nc1ccc(S(=O)(=O)O)cc1 and report it. -0.37

Record request: max response value, item CCOc1c(N2CCOCC2)cnn(C)c1=O -0.145

For the compound CCOC(=O)c1ccc(OCCN2C[C@H](O)[C@@H](O)[C@H](O)[C@H]2CO)cc1 , what max response is on record? -0.529

Recorded max response for Cc1ccc(Cl)c(OCC(O)CNC(C)(C)C)c1 (stereo not drawn) , please? 1.79

Any idea what its max response is? The compound is COc1cc(C(=O)OC(COCCC(C)C)CN2CCOCC2)cc(OC)c1OC (stereo not drawn) 3.87

# get_value(readout='max response', item= CCOC(=O)C(O)c1ccccc1 (stereo not drawn) ) 0.37

* * *

Assay: qHTS of pediatric cancer cell lines to identify multiple opportunities for drug repurposing: Primary screen for Saos-2 cells (AID 1347097); note: nearly all actives have a fitted effect of over 40% in size
Settings: Saos-2 viability, CellTiter-Glo ATP luminescence, 48 h; series mostly up to 46 µM
Records with an inconclusive call do not appear. Calls of active or inactive are those of the source. The call rests on the fitted dose curve; in most records, active means well fitted cell-killing curve with a large enough effect; inconclusive means small, poorly fitted or top-dose-only effect; inactive means no such curve, though single readings can be large or run the other way.
Tick one outcome: active, inactive

Recorded results for 5 compounds are shown here.
{"Compound": "OCCCc1ccccc1", "Label": "inactive"}
{"Compound": "O=[N+]([O-])c1ccc(O)c2ncccc12", "Label": "active"}
{"Compound": "O=C(O)c1cn(C2CC2)c2cc(Cl)c(F)cc2c1=O", "Label": "inactive"}
{"Compound": "Nc1ccc(C(=O)N2CC3CC(CN(Cc4ccccc4)C3)C2)cc1", "Label": "inactive"}
{"Compound": "NC(=O)NC1N=C([O][Al])NC1=O (stereo not drawn)", "Label": "inactive"}

Answer briefly: the call reported for CCOC(=O)[C@H](CCc1ccccc1)N[C@@H](C)C(=O)N(CC(=O)O)C1Cc2ccccc2C1 in this assay. inactive

Lab log entry: C#CC(C)(CC)OC(=O)c1ccccc1C(=O)O (stereo not drawn) — outcome as called in the assay? inactive

* * *

System: CAOV3
Experiment: Primary qHTS to identify gynecologic anti-cancer compounds using libraries of approved drugs and bioactive compounds (AID 1345084); note: nearly all actives have a fitted effect of over 55% in size
Details: Gynecologic cancer cell panel viability, ATPlite luminescence, 48 h; series mostly up to 57.5 µM
Inconclusive results are not listed. Active and inactive are the calls of the source. Calls follow the shape of the dose curve; as a rule, active = well fitted cell-killing curve with a large enough effect; inconclusive = small, poorly fitted or top-dose-only effect, or effect the other way; inactive = flat fitted curve, though single readings scatter.
A correct response names exactly one class from active, inactive

{"Compound": "CN1CCCN=C1/C=C/c1cccs1", "Label": "inactive"}

Each compound tested received a call. Report the one for COC(=O)c1cc(Cl)ccc1NS(=O)(=O)C(F)(F)F . active

Query: recorded result category for C[C@@H](C1=C(CCN(C)C)Cc2ccccc21)c1ccccn1 in this test inactive

These measurements were taken from PubChem BioAssay (NCATS).
